target: Gamma-secretase; experiment: Inhibition of gamma secretase activity in human H4 cells transfected with APP695 mutant assessed as beta amyloid(1-40) production by whole cell assay; type: cell-based
Listed compounds paired with reported IC50
Give a bare numeral; the unit nM is implied.

Known results for compounds:
CCC[C@H](NC(=O)CCc1cc(F)cc(F)c1)C(=O)Nc1ncc(C(C)CCCC(C)(C)OC)s1 (stereo not given in full) = 0.14
CCC[C@H](NC(=O)Cc1cc(F)cc(F)c1)C(=O)Nc1nc(C)c(C(C)N(C)C)s1 (stereo not given in full) = 39.7
CCC[C@H](NC(=O)Cc1cc(F)cc(F)c1)C(=O)Nc1ncc(C(C)NCCC(C)(C)C)s1 (stereo not given in full) = 1.2
CCCCN(CC)Cc1cnc(NC(=O)[C@H](CCC)NC(=O)Cc2cc(F)cc(F)c2)s1 = 12.7

Moving on to the next compound.
Quick one: IC50 for CCC[C@H](NC(=O)Cc1cc(F)cc(F)c1)C(=O)Nc1ncc(C(O)(CC)CC)s1 ?
1.2

###

molecular target: Gamma-secretase; test: Inhibition of gamma secretase activity in human H4 cells transfected with APP695 mutant assessed as beta amyloid(1-40) production by whole cell assay; format: cell-based
We begin with a simple list: items and their reported IC50.
Give the value in nM but do not write nM after it.

Known IC50 results, listed for orientation:
CCC[C@H](NC(=O)Cc1cc(F)cc(F)c1)C(=O)Nc1ncc(C(C)NCC(C)(C)C)s1 (stereo not given in full) = 231
CCC[C@H](NC(=O)Cc1cc(F)cc(F)c1)C(=O)Nc1ncc(C(C)NCc2ccccc2)s1 (stereo not given in full) = 1.4
CCC[C@H](NC(=O)Cc1cc(F)cc(F)c1)C(=O)Nc1nc(C)c(C(C)NCC(F)(F)F)s1 (stereo not given in full) = 4.5
CCC[C@H](NC(=O)Cc1cc(F)cc(F)c1)C(=O)Nc1ncc(C(C)N[C@H](C(=O)OC)C(C)C)s1 (stereo not given in full) = 0.7

Shift focus to the following entry.
Param readout= IC50; system= Gamma-secretase; entry= CCC[C@H](NC(=O)Cc1cc(F)cc(F)c1)C(=O)Nc1ncc(CN)s1 ; returns value.
93

###

Recorded IC50 for the following compounds
molecular target: Gamma-secretase; experiment: Inhibition of gamma secretase activity in human H4 cells transfected with APP695 mutant assessed as beta amyloid(1-40) production by whole cell assay; type: cell-based
The answer consists of two parts: a number and, after it, its unit.

CC[C@H](NC(=O)CCc1cc(F)cc(F)c1)C(=O)Nc1ncc(C(C)CCCC(C)(C)OC)s1 (some centres undefined) = 0.08 nM
CCCNC(C)c1cnc(NC(=O)[C@H](CCC)NC(=O)Cc2cc(F)cc(F)c2)s1 (some centres undefined) = 10.1 nM
CCC[C@H](NC(=O)Cc1cc(F)cc(F)c1)C(=O)Nc1ncc(C(C)NCC(C)C)s1 (some centres undefined) = 4.2 nM
CCC[C@H](NC(=O)Cc1cc(F)cc(F)c1)C(=O)Nc1ncc(C(C)NCCC(C)C)s1 (some centres undefined) = 1.2 nM

Now, please, on to the next compound.
Please look up its IC50: CCC[C@H](NC(=O)Cc1cc(F)cc(F)c1)C(=O)Nc1ncc(C(C)CC(C)(C)C)s1 (some centres undefined)
1.6 nM

###

IC50 overview
biological target: Gamma-secretase; experiment: Inhibition of gamma secretase C100Flag cleavaging activity in HeLa cell membranes assessed as M-amyloid beta-40 production by cell free assay; set-up: species or system Homo sapiens
// return numeric value only (unit: nM, not printed)

CCC[C@H](NC(=O)[C@@H](O)c1ccccc1)C(=O)Nc1ncc(C(O)(CC)CC)s1 = 2.8

Recorded IC50 of CCC[C@H](NC(=O)Cc1cc(F)cc(F)c1)C(=O)Nc1nc(C)c(C(C)NCCC(C)(C)C)s1 (some centres not stated) , please.
5.9

CCC[C@H](NC(=O)Cc1cc(F)cc(F)c1)C(=O)Nc1ncc(C(C)N2CCOCC2)s1 (some centres not stated) ?
3.8

Try this molecule next: CCC[C@H](NC(=O)Cc1cc(F)cc(F)c1)C(=O)Nc1ncc(C(C)C)s1
30

What about this molecule? CCC[C@H](NC(=O)[C@@H](O)C(C)(C)C)C(=O)Nc1ncc(C(C)CCCC(C)(C)O)s1 (some centres not stated)
7.4

Now try CCC[C@H](NC(=O)Cc1cc(F)cc(F)c1)C(=O)Nc1nc(C)c(C(C)NCCC(C)C)s1 (some centres not stated) .
5

Next molecule: CCC[C@H](NC(=O)Cc1cc(F)cc(F)c1)C(=O)Nc1ncc(C(C)NC(C)C)s1 (some centres not stated)
42.4

Field entry: CCC[C@H](NC(=O)Cc1cc(F)cc(F)c1)C(=O)Nc1ncc(C(CC)CC)s1
26.3

Input CCC[C@H](NC(=O)Cc1cc(F)cc(F)c1)C(=O)Nc1ncc(CN)s1
200

What would you report for CCC[C@H](NC(=O)Cc1cc(F)cc(F)c1)C(=O)Nc1nc(C)c(C(C)NC)s1 (some centres not stated) ?
51.8

Try CCC[C@H](NC(=O)Cc1cc(F)cc(F)c1)C(=O)Nc1nc(C)c(C(C)N(C)C)s1 (some centres not stated) next.
28.3

Can you handle CC[C@H](NC(=O)CCc1cc(F)cc(F)c1)C(=O)Nc1ncc([C@@H](C)CCCC(C)(C)OC)s1 next?
30
